test system: Wolbachia pipientis; experiment: Anti-Wolbachia Cell-Based Screen; assay type: functional; parameters: scale not given: in the data most compounds retested in dose-response had high values; settings: 5 µM
The whole screen tested about 48,000 compounds, of which about 13,000 (27%) showed an effect of 50% or more. Some of the results follow.
measurementLabel: Percent Effect (%)
Lab book: enter the figure in %, no units written.

Which Percent Effect value belongs to CC(C)N(C)S(=O)(=O)c1ccc2c(c1)CCN(C(=O)c1cccnn1)C2 ?
105.4

Request the reported Percent Effect associated with Cc1ccc2c(n1)N(CCN(C)C)CCN(C(=O)c1cscn1)C2.O=C(O)C(F)(F)F.O=C(O)C(F)(F)F
28.27

Entry Cc1nnc(N2CCCC3(CN(c4ccccn4)CCO3)C2)o1.O=C(O)C(F)(F)F (centres undefined) has what Percent Effect?
102.3

Fill in the blank: the reported Percent Effect of CNC(=O)c1cccc(NC(=O)NCc2ccc(SC)cc2)c1C is ____.
-19.71

Item under review: CN(C)Cc1ccc(C2CCCCN2C(=O)c2cccnn2)cc1 (centres undefined) . Reported Percent Effect?
-5.621

Percent Effect lookup needed for Cc1ccc(CN2CCOC3(CCCN(C(=O)c4ccco4)C3)C2)s1.O=C(O)C(F)(F)F (centres undefined) , thanks.
12.79

So what does the record say about Percent Effect for CC(C)Nc1cccc(C(=O)NCC(O)c2cccc(F)c2)c1 (centres undefined) ?
-13.04

Find the recorded Percent Effect belonging to O=C(O)C(F)(F)F.c1ccc(N2CCOC3(CCCN(c4ncccn4)C3)C2)nc1 (centres undefined) and report it.
84.77

Entry CC(C)N(C)S(=O)(=O)c1ccc2c(c1)CCN(C(=O)c1cnccn1)C2 : reported Percent Effect = ?
109.6
